Listing of entries alongside the reported MFI fold change over parental CHO.
Target: T1, cynomolgus monkey SIRPγ on CHO cells (cynomolgus monkey, UniProt Q9P1W8 29-386 (human entry))
T1 construct: also called Cyno SIRPγ CHO
T1 chain: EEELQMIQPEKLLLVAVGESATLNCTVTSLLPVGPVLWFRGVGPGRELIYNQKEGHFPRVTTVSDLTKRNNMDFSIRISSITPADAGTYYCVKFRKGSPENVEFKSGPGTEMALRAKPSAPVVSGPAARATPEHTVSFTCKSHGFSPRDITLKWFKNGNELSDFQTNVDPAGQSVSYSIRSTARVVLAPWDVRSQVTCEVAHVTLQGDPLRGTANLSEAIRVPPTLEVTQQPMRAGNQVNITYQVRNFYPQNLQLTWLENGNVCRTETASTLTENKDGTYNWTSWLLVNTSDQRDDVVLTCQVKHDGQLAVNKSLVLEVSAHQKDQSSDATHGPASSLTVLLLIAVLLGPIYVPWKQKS
Test: flow cytometry, myc-scFv PPE
Number only, in fold; omit the unit.

Antibody 11 (scFv, V domains shown, scFv in crude PPE, V5/myc-tagged) VH: QVQLVQSGAEVKKPGASVKVSCKASGYTFTSYDINWVRQAPGQGLEWMGWMNPNSGNTGYAQKFQGRVTMTRDTSTSTVYMELSSLRSEDTAVYYCAKGAVAGTYYYYGMDVWGQGTTVTVSS VL: DIQMTQSPSSLSASVGDRVTITCRASQTINNYLNWYQQKPGKAPKLLIYDASNLETGVPSRFSGSGSGTDFTLTISSLQPEDFATYYCQQANSFPLTFGQGTKVEIK : 6.18

# next binder below
// sample Antibody 9 (scFv, V domains shown, scFv in crude PPE, V5/myc-tagged) VH: QVQLVQSGAEVKKPGASVKVSCKASGYSFSDYYMHWVRQAPGQGLEWMGWMSPNSGNTGYAQKFQGRVTMTRDTSTSTVYMELSSLRSEDTAVYYCARQREEYGHYYYGMDVWGQGTMVTVSS VL: EIVMTQSPATLSVSPGERATLSCRASQSLGSTYLAWYQQKPGQAPRLLIYGASTRATGIPARFSGSGSGTEFTLTISSLQSEDFAVYYCQQYYSSPPTFGQGTKVEIK , its MFI fold change over parental CHO was 6.87

The reported numbers originate from patent US20240400677A1.
